Here, each record is paired with measured 100 nM hIL-36R-MMH Bound (RU) data.
Target: T1, recombinant human IL-36R extracellular domain expressed with a C-terminal myc-myc-hexahistidine tag (human, UniProt Q9HB29 20-337)
T1 construct: also called hIL-36R-MMH; hIL-36R.mmH
T1 sequence (Q9HB29 other isoform, or with tags, fused parts or gaps limits assumed): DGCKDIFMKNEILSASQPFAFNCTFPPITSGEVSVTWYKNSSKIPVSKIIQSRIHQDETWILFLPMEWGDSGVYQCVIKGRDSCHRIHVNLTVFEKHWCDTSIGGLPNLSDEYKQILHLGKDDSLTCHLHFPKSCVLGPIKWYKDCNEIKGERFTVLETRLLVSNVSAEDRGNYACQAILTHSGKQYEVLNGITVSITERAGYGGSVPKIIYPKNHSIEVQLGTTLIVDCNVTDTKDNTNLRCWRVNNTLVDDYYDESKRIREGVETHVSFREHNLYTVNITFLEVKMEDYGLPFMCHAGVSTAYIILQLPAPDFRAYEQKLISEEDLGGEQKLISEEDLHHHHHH
Assay: SPR (Biacore 4000), mAb captured on anti-human Fc, 37°C
Numbers only; they are read as RU.

Please review the following examples before continuing.
H4H14731P (antibody, human IgG4 S228P, kappa, V domains shown) VH: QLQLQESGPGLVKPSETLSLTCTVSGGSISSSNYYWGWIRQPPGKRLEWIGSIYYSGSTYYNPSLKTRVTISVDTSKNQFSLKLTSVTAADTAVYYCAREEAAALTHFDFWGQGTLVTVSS VL: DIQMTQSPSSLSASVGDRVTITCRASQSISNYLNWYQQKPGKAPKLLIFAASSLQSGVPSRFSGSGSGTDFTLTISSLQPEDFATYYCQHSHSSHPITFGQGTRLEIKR    81
H4H14757P (antibody, human IgG4 S228P, kappa, V domains shown) VH: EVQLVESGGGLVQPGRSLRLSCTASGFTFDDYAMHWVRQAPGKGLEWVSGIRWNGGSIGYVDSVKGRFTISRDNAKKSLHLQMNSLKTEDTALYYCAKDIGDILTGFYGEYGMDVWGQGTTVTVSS VL: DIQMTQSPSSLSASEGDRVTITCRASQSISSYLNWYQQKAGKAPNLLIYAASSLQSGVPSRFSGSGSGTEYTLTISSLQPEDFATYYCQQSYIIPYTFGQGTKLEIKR    129
H4H14708P2 (antibody, human IgG4 S228P, kappa, V domains shown) VH: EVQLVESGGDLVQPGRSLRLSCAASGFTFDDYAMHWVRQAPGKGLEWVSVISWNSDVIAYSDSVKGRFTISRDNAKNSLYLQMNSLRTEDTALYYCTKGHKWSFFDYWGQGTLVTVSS VL: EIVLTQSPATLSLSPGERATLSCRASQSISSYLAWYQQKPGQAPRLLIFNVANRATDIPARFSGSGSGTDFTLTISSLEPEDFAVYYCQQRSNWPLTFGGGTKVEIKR    106

Field: next binder
Task: Determine from records and report 100 nM hIL-36R-MMH Bound (RU) for H4H14728P (antibody, human IgG4 S228P, kappa, V domains shown) VH: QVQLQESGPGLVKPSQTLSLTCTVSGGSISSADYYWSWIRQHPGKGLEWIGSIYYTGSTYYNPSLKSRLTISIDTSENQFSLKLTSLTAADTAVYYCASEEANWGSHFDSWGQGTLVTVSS VL: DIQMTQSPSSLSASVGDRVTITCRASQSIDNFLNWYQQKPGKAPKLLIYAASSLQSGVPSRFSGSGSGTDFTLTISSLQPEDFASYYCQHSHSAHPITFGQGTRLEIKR
Result: 93
